# System under test: STAT3 (aa 127-722) (Homo sapiens, UniProt P40763)
# Construct: STAT3 (aa 127-722) at a concentration of 200 nM
# Sequence (P40763 127-722 isoform P40763-3 limits assumed, species assumed): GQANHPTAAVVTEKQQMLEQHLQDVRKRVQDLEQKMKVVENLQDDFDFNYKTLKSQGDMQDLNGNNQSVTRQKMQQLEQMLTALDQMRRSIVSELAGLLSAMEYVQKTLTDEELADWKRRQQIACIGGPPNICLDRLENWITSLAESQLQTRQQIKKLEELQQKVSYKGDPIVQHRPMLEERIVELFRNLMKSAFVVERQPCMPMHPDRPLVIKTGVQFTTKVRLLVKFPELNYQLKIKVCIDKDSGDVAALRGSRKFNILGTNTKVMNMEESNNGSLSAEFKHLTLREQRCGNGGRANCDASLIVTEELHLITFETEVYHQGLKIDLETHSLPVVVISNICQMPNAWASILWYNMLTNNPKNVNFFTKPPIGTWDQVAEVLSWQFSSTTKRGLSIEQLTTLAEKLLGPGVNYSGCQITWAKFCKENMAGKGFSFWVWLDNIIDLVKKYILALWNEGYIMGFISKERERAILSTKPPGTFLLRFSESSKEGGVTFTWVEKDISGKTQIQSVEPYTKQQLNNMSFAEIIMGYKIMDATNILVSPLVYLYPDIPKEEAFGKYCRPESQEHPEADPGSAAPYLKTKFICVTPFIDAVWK
# Assay summary: SPR assay of STAT3 binding to immobilized EGFR pY1068 phosphododecapeptide
# Conditions: pEGFRp-STAT3 binding (SPR) at pH 8, compound 100 μm
Experimental readout: % of max binding at 100 μm (%)

Look over these answered cases.
[
  {
    "Molecule": "COc1cc(/C=C2/SC(=O)NC2=O)ccc1OCc1ccc(Cl)cc1Cl [SPEC-98]",
    "% of max binding at 100 μm (%)": 7.8
  },
  {
    "Molecule": "CC(C)c1ccc(NC(=O)C2C3C=CC(CC3)C2C(=O)O)cc1 (centres unmarked) [SPEC-65]",
    "% of max binding at 100 μm (%)": 43.5
  },
  {
    "Molecule": "CS(=O)(=O)c1ccc2nc(NC(=O)c3cccc(Cn4cc(Cl)cn4)c3)sc2c1 [SPEC-66]",
    "% of max binding at 100 μm (%)": 15.9
  },
  {
    "Molecule": "COC(=O)c1ccc(N2C(=O)CC(SC(=NCCc3ccc(S(N)(=O)=O)cc3)Nc3ccccc3)C2=O)cc1 (centres unmarked) [SPEC-100]",
    "% of max binding at 100 μm (%)": 15.4
  }
]

P: Cc1cc(NS(=O)(=O)c2ccc(NC(=O)COc3ccc(C(C)(C)c4ccccc4)cc3)cc2)nc(C)n1 [SPEC-106]
Q: CC1(C)CC(=O)c2sc(NC(=O)CSc3nnc(SCC(=O)Nc4nc5c(s4)C(=O)CC(C)(C)C5)s3)nc2C1 [SPEC-103]
R: CCn1c(CNc2ccc(Cl)cc2)nnc1SC(C)C(=O)Nc1ccc(C(C)=O)cc1 (centres unmarked) [SPEC-90]
S: COc1ccc(/C=C/C(=O)c2cc(Br)ccc(=O)c2O)cc1 [SPEC-8]
(Q) Hi! Can you put these in order of % of max binding at 100 μm, lowest number first? Answer by writing out the labels in the requested order.
(A) Q, P, S, R

* * *

# Tested on: G-CSF-stimulated pSTAT3
# Assay summary: Inhibition of G-CSF-stimulated pSTAT3 in Kasumi-1 cells (Luminex, pSTAT3/GAPDH)
# Format: cell-based
# Conditions: Homo sapiens, Kasumi 1; Kasumi1 cells, single concentration of 10 μM, G-CSF 100 ng/ml; pSTAT3/GAPDH relative to DMSO treated cells; read-out: % of Control Stimulated pSTAT3
Quick list: activity at 10 µM per entry.
Value expressed in %; do not type the unit.

Some solved entries appear below for comparison.
[
  {
    "Structure smiles string": "COc1ccc(/C=C/C(=O)c2cc(Br)ccc(=O)c2O)cc1",
    "System under test": "G-CSF-stimulated pSTAT3",
    "Scale unit": "%",
    "activity at 10 µM": 0
  },
  {
    "Structure smiles string": "CC(=O)Nc1nc(C)c(-c2csc(Nc3ccccc3)n2)s1",
    "System under test": "G-CSF-stimulated pSTAT3",
    "Scale unit": "%",
    "activity at 10 µM": 0
  },
  {
    "Structure smiles string": "COc1ccc(Br)cc1/C=C/C(=O)c1ccc(NC(C)=O)cc1",
    "System under test": "G-CSF-stimulated pSTAT3",
    "Scale unit": "%",
    "activity at 10 µM": 0
  },
  {
    "Structure smiles string": "Cc1cc(NS(=O)(=O)c2ccc(NC(=O)COc3ccc(C(C)(C)c4ccccc4)cc3)cc2)nc(C)n1",
    "System under test": "G-CSF-stimulated pSTAT3",
    "Scale unit": "%",
    "activity at 10 µM": 1
  },
  {
    "Structure smiles string": "COc1cc(/C=C2/SC(=O)NC2=O)ccc1OCc1ccc(Cl)cc1Cl",
    "System under test": "G-CSF-stimulated pSTAT3",
    "Scale unit": "%",
    "activity at 10 µM": 20
  }
]

(Q) Under G-CSF-stimulated pSTAT3: report activity at 10 µM of `O=C(O)COc1c(Br)cc(/C=C2\SC(=O)N(CC(=O)N3CCN(c4ccccc4)CC3)C2=O)cc1Br` .
(A) 2

* * *

# System under test: STAT3 (aa 127-722) (Homo sapiens, UniProt P40763)
# Construct: STAT3 (aa 127-722) at a concentration of 200 nM
# Assay summary: SPR assay of STAT3 binding to immobilized EGFR pY1068 phosphododecapeptide
# Conditions: pEGFRp-STAT3 binding (SPR) at pH 8, compound 10 μm
Experimental readout: % of max binding at 10 μm (%)

[
  {
    "Molecule": "COc1cc(/C=C2/SC(=O)NC2=O)ccc1OCc1ccc(Cl)cc1Cl",
    "% of max binding at 10 μm / %": 70.4
  },
  {
    "Molecule": "CCCCOc1ccc(/C=C2\\SC(=O)NC2=O)cc1OCC",
    "% of max binding at 10 μm / %": 76.7
  },
  {
    "Molecule": "O=C(O)COc1c(Br)cc(/C=C2\\SC(=O)N(CC(=O)N3CCN(c4ccccc4)CC3)C2=O)cc1Br",
    "% of max binding at 10 μm / %": 67.3
  },
  {
    "Molecule": "CC(C)c1ccc(NC(=O)C2C3C=CC(CC3)C2C(=O)O)cc1 (centres unmarked)",
    "% of max binding at 10 μm / %": 57.5
  },
  {
    "Molecule": "O=C(Nc1ccc(Oc2ccccc2Cl)cc1)C1C2CC3C(OC(=O)C31)C2Br (centres unmarked)",
    "% of max binding at 10 μm / %": 58.5
  }
]
